test system: HCT-116; assay: Cytotoxicity against human HCT116 cells incubated for 24 hrs by sulforhodamine B assay; assay type: functional, cell-based; conditions: HCT-116, 24 h
Result type: IC50 (µM)
Numbers only here, please. The scale is µM.

Illustrative cases are given below, each with its answer.
According to the records, this compound CCCCCCCCN1C(=O)c2cccc3c(NCCN4CCCNCCNCCCNCC4)ccc(c23)C1=O displays IC50 of 16.7

According to the records, this compound CCCCCCCCNc1ccc2c3c(cccc13)C(=O)N(CCCN1CCCNCCNCCCNCC1)C2=O displays IC50 of 8.07

According to the records, this compound CCCCCCCCCCCCNc1ccc2c3c(cccc13)C(=O)N(CCCN1CCCNCCNCCCNCC1)C2=O displays IC50 of 13

According to the records, this compound CN1C(=O)c2cccc3c(NCCN4CCCNCCNCCCNCC4)ccc(c23)C1=O displays IC50 of 34.1

According to the records, this compound CCCCN1C(=O)c2cccc3c(NCCN4CCCNCCNCCCNCC4)ccc(c23)C1=O displays IC50 of 29.2

***
According to the records, this compound CCCCCCCCCCCCN1C(=O)c2cccc3c(NCCN4CCCNCCNCCCNCC4)ccc(c23)C1=O displays IC50 of 18.2
